Answer each item with its documented MIC.
Test system: Staphylococcus aureus
procedure.text: microbe, parasite or virus in culture
experimental.conditions: ATCC 43300, 18 h, ASSAY_TEST Inhibition of Bacterial Growth, detection method Absorption (OD600), MEDIA CAMHB, plate type 384well, NBS, CORNING #3640
Description: Antibacterial activity against Staphylococcus aureus MRSA ATCC 43300 (CO-ADD:GP_020); MIC in CAMBH media, using NBS plates, by OD(600)
Write the number in µg/mL without appending the unit.

The reported MIC of the compound Cc1cc(C)c(Nc2ccccc2-c2ccc([N+](=O)[O-])cc2[N+](=O)[O-])c(C)c1 was 32

Lab note: measured MIC of Cc1ccccc1Nc1ccccc1-c1ccccc1[N+](=O)[O-] was 4

// O=[N+]([O-])c1ccccc1-c1ccccc1Nc1ccccc1 : MIC value = 16

Form: compound = C=C[C@]1(C)C[C@@H](OC(=O)CO)[C@]2(C)[C@H](C)CC[C@]3(CCC(=O)[C@H]32)[C@@H](C)[C@@H]1O ; MIC = 2

====

System: Acinetobacter baumannii
procedure.text: microbe, parasite or virus in culture
experimental.conditions: ATCC 19606, 18 h, ASSAY_TEST Inhibition of Bacterial Growth, detection method Absorption (OD600), MEDIA CAMHB, plate type 384well, NBS, CORNING #3640
Description: Antibacterial activity against Acinetobacter baumannii ATCC 19606 (CO-ADD:GN_034); MIC in CAMBH media using NBS plates, by OD600
For each entry below, report its MIC value.

The molecule listed as Cc1ccccc1Nc1ccccc1-c1ccccc1[N+](=O)[O-] has a reported MIC of > 32 µg/mL

Per the record, Cc1cc(C)c(Nc2ccccc2-c2ccc([N+](=O)[O-])cc2[N+](=O)[O-])c(C)c1 has MIC of > 32 µg/mL

Quick note, MIC for Cc1cc(C)c(Nc2ccccc2-c2ccccc2[N+](=O)[O-])c(C)c1 landed at > 32 µg/mL

For record O=[N+]([O-])c1ccccc1-c1ccccc1N(Cc1ccccc1)c1ccccc1 the listed MIC is > 32 µg/mL

Documented MIC of C=C[C@]1(C)C[C@@H](OC(=O)CO)[C@]2(C)[C@H](C)CC[C@]3(CCC(=O)[C@H]32)[C@@H](C)[C@@H]1O [PLEUROMULIN] : > 32 µg/mL

So, O=[N+]([O-])c1ccccc1-c1ccccc1Nc1ccccc1 ? Its MIC was > 32 µg/mL

====

Consider the following compounds; for each one, report its MIC.
Test system: Candida albicans
procedure.text: microbe, parasite or virus in culture
experimental.conditions: ATCC 90028, ASSAY_TEST Inhibition of Fungal Growth, detection method Absorption (OD530), plate type 384well, NBS, CORNING #3640
Description: Antifungal activity against Candida albicans ATCC 90028 (CO-ADD:FG_001); MIC in YNB media using NBS plates, by OD630
Note: unit µg/mL is implicit; provide only the numeric part.

Entry Cc1ccccc1Nc1ccccc1-c1ccccc1[N+](=O)[O-] ; MIC = 8

So for Cc1cc(C)c(Nc2ccccc2-c2ccc([N+](=O)[O-])cc2[N+](=O)[O-])c(C)c1 , the logged MIC turned out to be 4

For reference, reported MIC for O=[N+]([O-])c1ccccc1-c1ccccc1N(Cc1ccccc1)c1ccccc1 stands at 32

Data point: O=[N+]([O-])c1ccccc1-c1ccccc1Nc1ccccc1 ; MIC = 8

Input Cc1cc(C)c(Nc2ccccc2-c2ccccc2[N+](=O)[O-])c(C)c1 . Output MIC: 16
